- Target Desc: PRC2 containing wt EZH2 (Homo sapiens (Human), UniProt Q15910)
- Sequence (Q15910 whole entry): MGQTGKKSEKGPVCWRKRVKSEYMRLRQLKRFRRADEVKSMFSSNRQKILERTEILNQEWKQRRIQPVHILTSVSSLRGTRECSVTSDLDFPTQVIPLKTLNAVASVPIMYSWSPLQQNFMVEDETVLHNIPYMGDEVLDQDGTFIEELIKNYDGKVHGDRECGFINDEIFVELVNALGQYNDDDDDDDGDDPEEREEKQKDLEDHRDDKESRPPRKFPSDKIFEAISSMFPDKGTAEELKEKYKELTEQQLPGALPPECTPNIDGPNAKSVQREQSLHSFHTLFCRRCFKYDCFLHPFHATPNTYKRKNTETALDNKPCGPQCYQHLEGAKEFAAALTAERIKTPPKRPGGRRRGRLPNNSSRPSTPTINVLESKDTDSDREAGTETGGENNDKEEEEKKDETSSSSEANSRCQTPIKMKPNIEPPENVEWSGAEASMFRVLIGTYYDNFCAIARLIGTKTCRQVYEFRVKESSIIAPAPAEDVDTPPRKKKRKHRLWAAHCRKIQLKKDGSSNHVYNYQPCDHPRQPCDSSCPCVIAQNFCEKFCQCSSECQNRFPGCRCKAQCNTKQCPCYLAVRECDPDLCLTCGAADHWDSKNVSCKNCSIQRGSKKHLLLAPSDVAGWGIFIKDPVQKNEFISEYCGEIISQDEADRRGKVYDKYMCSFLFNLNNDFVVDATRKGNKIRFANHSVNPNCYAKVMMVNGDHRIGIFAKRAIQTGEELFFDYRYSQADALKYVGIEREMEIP
- Sequence (O75530 whole entry partner): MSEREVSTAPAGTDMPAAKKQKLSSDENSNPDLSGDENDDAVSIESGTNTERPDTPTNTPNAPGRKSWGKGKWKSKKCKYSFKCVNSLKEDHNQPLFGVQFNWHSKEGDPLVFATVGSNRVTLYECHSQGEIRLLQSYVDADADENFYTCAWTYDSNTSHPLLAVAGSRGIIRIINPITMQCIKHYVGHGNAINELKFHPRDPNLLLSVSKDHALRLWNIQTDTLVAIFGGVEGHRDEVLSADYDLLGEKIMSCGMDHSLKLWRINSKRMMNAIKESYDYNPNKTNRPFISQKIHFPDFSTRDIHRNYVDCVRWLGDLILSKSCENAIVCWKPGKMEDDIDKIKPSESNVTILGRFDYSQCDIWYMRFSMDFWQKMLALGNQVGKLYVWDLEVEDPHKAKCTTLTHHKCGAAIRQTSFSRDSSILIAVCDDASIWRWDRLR
- Sequence (Q15022 whole entry partner): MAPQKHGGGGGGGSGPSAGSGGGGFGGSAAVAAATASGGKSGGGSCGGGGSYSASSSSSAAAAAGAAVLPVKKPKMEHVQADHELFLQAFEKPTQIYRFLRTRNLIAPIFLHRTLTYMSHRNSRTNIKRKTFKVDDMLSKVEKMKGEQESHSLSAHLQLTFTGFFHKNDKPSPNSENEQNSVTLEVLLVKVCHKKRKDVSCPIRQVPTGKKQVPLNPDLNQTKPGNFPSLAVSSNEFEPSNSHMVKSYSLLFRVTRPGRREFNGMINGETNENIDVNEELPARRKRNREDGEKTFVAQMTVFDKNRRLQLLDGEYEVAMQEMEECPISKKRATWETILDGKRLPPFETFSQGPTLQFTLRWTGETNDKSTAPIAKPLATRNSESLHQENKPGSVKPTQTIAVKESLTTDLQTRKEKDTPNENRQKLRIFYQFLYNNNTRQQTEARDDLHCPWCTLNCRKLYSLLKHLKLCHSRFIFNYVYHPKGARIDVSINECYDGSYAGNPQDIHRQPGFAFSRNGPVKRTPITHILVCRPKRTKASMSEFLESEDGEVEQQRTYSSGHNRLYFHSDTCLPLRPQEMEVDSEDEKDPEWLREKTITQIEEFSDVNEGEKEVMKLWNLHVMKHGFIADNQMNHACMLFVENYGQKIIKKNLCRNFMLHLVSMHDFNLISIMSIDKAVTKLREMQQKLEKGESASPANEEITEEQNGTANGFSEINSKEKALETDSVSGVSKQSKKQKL
- Sequence (Q09028 whole entry partner): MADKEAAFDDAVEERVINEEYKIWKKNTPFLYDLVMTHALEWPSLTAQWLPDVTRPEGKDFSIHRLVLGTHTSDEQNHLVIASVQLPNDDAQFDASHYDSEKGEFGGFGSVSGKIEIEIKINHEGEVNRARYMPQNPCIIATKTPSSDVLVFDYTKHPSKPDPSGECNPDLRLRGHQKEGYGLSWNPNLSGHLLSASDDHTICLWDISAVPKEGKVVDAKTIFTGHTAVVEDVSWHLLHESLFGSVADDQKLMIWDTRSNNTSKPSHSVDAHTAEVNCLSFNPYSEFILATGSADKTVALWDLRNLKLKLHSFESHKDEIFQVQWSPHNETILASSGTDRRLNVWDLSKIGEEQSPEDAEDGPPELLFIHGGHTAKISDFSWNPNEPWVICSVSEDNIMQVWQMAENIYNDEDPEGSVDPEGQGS
- Sequence (Q6ZN18 whole entry partner): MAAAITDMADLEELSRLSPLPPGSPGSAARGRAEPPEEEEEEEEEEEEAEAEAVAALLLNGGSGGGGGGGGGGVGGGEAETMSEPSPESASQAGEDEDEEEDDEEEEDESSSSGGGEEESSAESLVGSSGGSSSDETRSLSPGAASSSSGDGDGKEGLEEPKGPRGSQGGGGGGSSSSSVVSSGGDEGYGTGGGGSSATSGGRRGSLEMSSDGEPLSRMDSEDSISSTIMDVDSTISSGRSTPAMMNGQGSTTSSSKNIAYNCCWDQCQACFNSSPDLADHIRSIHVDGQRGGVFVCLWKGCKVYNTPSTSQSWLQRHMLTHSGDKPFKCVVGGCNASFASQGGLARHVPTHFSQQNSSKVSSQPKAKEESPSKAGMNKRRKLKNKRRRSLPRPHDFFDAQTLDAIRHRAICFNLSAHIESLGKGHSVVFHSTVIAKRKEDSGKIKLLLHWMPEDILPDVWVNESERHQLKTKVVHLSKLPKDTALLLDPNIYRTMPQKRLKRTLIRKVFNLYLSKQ
- Method: EZH2 biochemical assay (IC50), 3H-SAM incorporation into biotinylated H3 peptide
- Experimental Context: 30 pM PRC2 containing wt EZH2; 3-5 h pre-incubation; read-out: EZH2 (IC50)
pIC50: −log10 of the molar value.
Endpoint Name: pIC50

Find the recorded pIC50 belonging to CSc1cc(C)[nH]c(=O)c1CNC(=O)c1c(C)n([C@H](C)C2CCC(N3CC(OC4CC4)C3)CC2)c2c(F)cccc12 (single isomer, unassigned) [113 (isomer 2)] and report it.
> 9.30

Request the reported pIC50 associated with CSc1cc(C)[nH]c(=O)c1CNC(=O)c1c(C)n([C@H](C)C23CC(N(C)CC(F)(F)F)(C2)C3)c2ccccc12
> 9.30

Return reported pIC50; argument: CSc1cc(C)[nH]c(=O)c1CNC(=O)c1c(C)n([C@H](C)C2CCC(N3CCOC3=O)CC2)c2ccccc12 (stereo partly drawn)
> 9.30

Return reported pIC50; argument: COC1CC(N2CC[C@H]([C@@H](C)n3c(C)c(C(=O)NCc4c(SC)cc(C)[nH]c4=O)c4ccccc43)[C@H](F)C2)C1 (stereo partly drawn)
> 9.30

Query (molecule): Cc1cc(SC2CCC2)c(CNC(=O)c2c(C)n([C@H](C)C3CCN(CC(F)(F)F)CC3)c3ccccc23)c(=O)[nH]1 ; field requested: pIC50
> 9.30

Here's the next entry for you.
Return reported pIC50; argument: CSc1cc(C)[nH]c(=O)c1CNC(=O)c1c(C)n([C@H](C)C2CCC(NC3(C(F)(F)F)COC3)CC2)c2ncccc12 (single isomer, unassigned) [163 (isomer 2)]
8.30 to 9.30
